Target: recombinant eIF4E (Homo sapiens (Human))
Test: Fluorescence polarization competition assay for eIF4E binding potency
Details: fluorescence polarization competition, 75 nM recombinant eIF4E, 20 nM EDA-m7GDP-ATTO-550; IC50 class; read-out: elF4E FP
pIC50: −log10 of the molar value.
I'd appreciate it if you could supply pIC50 values for the items below.

// pIC50 lookup, key: Cc1cc(-c2cc(Cl)ccc2OCCn2c(C)nc3cc(C(F)(F)F)c(N4CCN(C)CC4)c(C#N)c3c2=O)c2scc(C(O)C(F)(F)F)c2n1 (stereo not drawn) [compound 1080]
6.00 to 7.30

Moving on to the next compound: Cc1cc(-c2cc(Cl)ccc2OCCn2c(C)nc3cc(Cl)c(N4CC(C(F)(F)F)C4)c(C#N)c3c2=O)c2scc(C(=O)O)c2n1 [compound 689]
> 7.30

Moving on to the next compound: Cc1cc(-c2cc(Cl)ccc2OCCn2c(C)nc3cc(C(F)(F)F)c(N4CCCCC4)c(C#N)c3c2=O)c2scc(C(=O)O)c2n1 [compound 423]
> 7.30

###

Biological target: recombinant eIF4E (Homo sapiens (Human), UniProt P06730)
Sequence (P06730 whole entry): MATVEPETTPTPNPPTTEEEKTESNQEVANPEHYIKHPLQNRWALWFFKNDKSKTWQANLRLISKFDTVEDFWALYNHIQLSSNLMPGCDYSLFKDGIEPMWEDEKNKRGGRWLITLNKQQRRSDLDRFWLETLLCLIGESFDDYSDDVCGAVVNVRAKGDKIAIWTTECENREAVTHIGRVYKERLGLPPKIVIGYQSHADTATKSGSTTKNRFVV
Experiment: Fluorescence polarization competition assay for eIF4E binding potency
Conditions: inhibition of eIF4E/EDA-m7GDP-ATTO-550 binding by 50%; Table 4B calculated values; read-out: IC50
Description: Compounds were screened for eIF4E binding potency using a fluorescence polarization competition assay. All binding reactions were performed in fluorescence polarization buffer (FPB) containing 20 mM Tris pH 7.5, 100 mM NaCl, 1 mM DTT, and 0.02% Tween-20. Final binding reactions contained 75 nM recombinant eIF4E (Beryllium, custom order), 20 nM EDA-m^7GDP-ATTO-550 (Jena Bioscience, NU-827-550) and varying concentrations of the inhibitory compound of interest. […]
I'd appreciate it if you could supply pIC50 values for the items below.
Expect pIC50 as a plain number equal to -log10 of the molar concentration.

// pIC50 lookup, key: CCN(CC)Cc1c(C(F)(F)F)cc2nc(C)n(CCOc3ccc(Cl)cc3-c3ccnc4c(C(=O)O)csc34)c(=O)c2c1C#N [compound 527]
7.61

Moving on to the next compound: Cc1nc2cc(C#N)cc(C#N)c2c(=O)n1CC#Cc1ccc(Cl)cc1-c1ccnc2c(C(=O)O)csc12 [compound 258]
7.42

Moving on to the next compound: Cc1nc2cc(OC(F)F)c(OC(F)F)c(C#N)c2c(=O)n1CCOc1ccc(Cl)cc1-c1ccnc2c(C(=O)O)csc12 [compound 541]
7.31

Moving on to the next compound: Cc1cc(-c2cc(Cl)ccc2OCCn2c(C)nc3cc(C(F)(F)F)c(-c4ccnc(C)c4F)c(C#N)c3c2=O)c2scc(C(=O)O)c2n1 [compound 472]
7.63

Moving on to the next compound: Cc1cc(-c2cc(Cl)ccc2OCCn2c(C)nc3cnc(OC4CNC4)c(C#N)c3c2=O)c2sc(C)c(C(=O)O)c2n1 [compound 869]
7.60

###

I'd appreciate it if you could supply pIC50 values for the items below.
Target: recombinant eIF4E (Homo sapiens (Human))
Test: Fluorescence polarization competition assay for eIF4E binding potency
Conditions: fluorescence polarization competition, 75 nM recombinant eIF4E, 20 nM EDA-m7GDP-ATTO-550; IC50 class; read-out: elF4E FP
pIC50: −log10 of the molar value.

// pIC50 lookup, key: Cc1ncc(C#N)c2c(=O)n(CCOc3ccc(Cl)cc3-c3ccnc4c(C(=O)O)csc34)c(C)nc12 [compound 674]
> 7.30

Moving on to the next compound: N#Cc1cc(C(=O)O)cc(-c2cc(Cl)ccc2OCCn2cnc3cnc(C#N)cc3c2=O)c1 [compound 93]
< 6.00

Moving on to the next compound: COC(=O)c1csc2c(-c3cc(Cl)ccc3OCCn3c(C)nc4cc(C(F)(F)F)c(N5CCN(C6CC6)CC5)c(C#N)c4c3=O)ccnc12 [compound 1206]
> 7.30

Moving on to the next compound: Cc1nc2cnc(N3CC4(CN(CC(F)F)C4)C3)c(C#N)c2c(=O)n1CC#Cc1ccc(Cl)cc1-c1ccnc2c(C(=O)O)csc12 [compound 893]
> 7.30

Moving on to the next compound: Cc1nc2cnc(N(C)C3CCN(CC(F)(F)F)CC3)c(C#N)c2c(=O)n1CCOc1ccc(Cl)cc1-c1ccnc2c(C(=O)NS(C)(=O)=O)csc12 [compound 1157]
> 7.30

Moving on to the next compound: CS(=O)(=O)c1cc(C#N)c2c(=O)n(CCOc3ccc(Cl)cc3-c3cccc(C(=O)O)c3)c(CF)nc2c1 [compound 233]
> 7.30
